Target desc: T1, PUF4 RNA-binding domain (Saccharomyces cerevisiae, UniProt P25339 537-888)
T1 sequence: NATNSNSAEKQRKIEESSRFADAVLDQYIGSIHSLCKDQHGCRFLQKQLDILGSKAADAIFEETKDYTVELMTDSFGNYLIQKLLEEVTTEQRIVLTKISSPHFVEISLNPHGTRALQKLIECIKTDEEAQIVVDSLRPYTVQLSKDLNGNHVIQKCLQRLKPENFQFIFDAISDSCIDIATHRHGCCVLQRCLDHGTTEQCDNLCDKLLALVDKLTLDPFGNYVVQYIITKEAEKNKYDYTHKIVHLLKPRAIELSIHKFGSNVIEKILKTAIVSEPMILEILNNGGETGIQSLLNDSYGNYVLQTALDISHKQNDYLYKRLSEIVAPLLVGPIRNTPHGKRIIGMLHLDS
Assay notes: Mg; RNA-MaP; 20 mM Na-HEPES pH 7.4, 30 mM KOAc, 0.75 mM MgCl2, 0.1% Tween-20, 5% glycerol, 0.1 mg/mL BSA, 2 mM DTT; 25 C; 0.0125-409.6 nM protein
Conditions used: tags: N-His6-TEV cleaved; C-SNAP kept, Cy3B-labelled; label: tethered on chip by stalled RNA polymerase
Would you kindly list Kd for each of these binders?
One number for each entry, in nM.

Hi there! I need Kd for each item below, if you can.
1. UCUCUUUGUACUGCGUCUCUU (ssRNA) [Ic_S1_P4E.1_K4.1_C4.1_H4.1_A4.1_[T5C]_[A6T]_[T7G]_F4.1_[T8C]_[A9G]_T4.1]
2. Ib_S2_P4E.1_K4.1_C4.1_H4.1_[A4G]_A4.1_[A6T]_F4.1_T4.1 (ssRNA) RNA: UUUGAUUAAUAUGAUAUCGUUCUUUCUUGUGUUUUAUUCUUUCUCGAUAUCAUAUUAAUCUUU
3. ACAAACGGACACUAUAUUACAAAC (ssRNA) [Id_ii_S3_P3E.4_K3.3_C3.2_[C-2G]_[T-1G]_H3.3_A3.1_F3.1_T3.2_[A10T]]
4. Ic_S4_P4E.1_K4.1_C4.1_H4.1_A4.1_[T5A]_[A6T]_[T7C]_F4.1_[T8A]_[A9C]_T4.1 (ssRNA) RNA: UUUGACAACUGAUCGUUCUUUCUUGUAAUCACUUCUUUCUCGAUCAGUUGUCUUU
5. UCUCUUUGUAACUAAAUCUCUU (ssRNA) [Ic_S1_P5E.1_K5.1_C5.1_H5.1_A5.1_[T5A]_[T6C]_[A7T]_F5.1_[T8A]_[T9A]_T5.1]
6. Ic_S2_P4E.1_K4.1_C4.1_H4.1_A4.1_[T5A]_[A6T]_[T7A]_F4.1_T4.1 (ssRNA) RNA: UUUGAUUAAUAUGAUAUCGUUCUUUCUUGUAAUAUAUUCUUUCUCGAUAUCAUAUUAAUCUUU

OUT:
1. 1280
2. 4.38
3. 1380
4. 1050
5. 506
6. 1.45
